The following compounds are listed with their measured DC50 values.
- Target Or Test System: BRAF V600E (Homo sapiens, UniProt P15056, V600E)
- Construct: endogenous C-terminal HiBiT fusion tag on BRAF V600E allele; endogenous in cells; host or cells: A375 clone 1F10 (CRISPR-Cas9 knock-in of the HiBiT tag; parental A375 from ATCC)
- Sequence (P15056 whole entry V600E, the tested form may be a part): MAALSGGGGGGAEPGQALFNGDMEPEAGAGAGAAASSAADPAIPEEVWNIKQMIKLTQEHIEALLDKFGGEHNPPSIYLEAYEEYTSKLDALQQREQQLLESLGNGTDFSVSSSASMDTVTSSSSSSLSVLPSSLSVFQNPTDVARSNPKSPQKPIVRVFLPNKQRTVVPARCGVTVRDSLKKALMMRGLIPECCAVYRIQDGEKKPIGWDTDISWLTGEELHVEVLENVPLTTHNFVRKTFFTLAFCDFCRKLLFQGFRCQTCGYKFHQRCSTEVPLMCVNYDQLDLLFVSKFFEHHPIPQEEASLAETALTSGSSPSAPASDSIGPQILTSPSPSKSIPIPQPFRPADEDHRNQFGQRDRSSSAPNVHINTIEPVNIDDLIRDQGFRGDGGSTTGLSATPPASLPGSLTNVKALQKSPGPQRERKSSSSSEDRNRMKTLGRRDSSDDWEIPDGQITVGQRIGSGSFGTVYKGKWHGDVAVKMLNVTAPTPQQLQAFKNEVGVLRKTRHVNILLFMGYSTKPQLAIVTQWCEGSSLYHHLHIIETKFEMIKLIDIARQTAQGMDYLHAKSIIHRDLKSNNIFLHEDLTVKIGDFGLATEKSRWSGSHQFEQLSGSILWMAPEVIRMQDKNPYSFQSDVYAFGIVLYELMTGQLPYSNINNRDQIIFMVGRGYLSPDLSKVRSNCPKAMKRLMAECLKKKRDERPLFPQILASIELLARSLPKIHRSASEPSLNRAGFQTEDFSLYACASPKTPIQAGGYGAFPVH
- Assay Notes: BRAF HiBiT degradation assay, C-terminal HiBiT-tagged BRAF V600E A375 cells (clone 1F10), Nano-Glo HiBiT Lytic assay
- Assay type: cell-based
- Protocol Conditions: A375 (BRAF V600E); DC50 at 50%: fitted conc. at Y=50

Compound | DC50
CCN(C)S(=O)(=O)Nc1cccc(-c2nc(C(C)(C)C)sc2-c2ccnc(Nc3ccc(N4CCN(C(=O)C5CN(c6ccc(C7CCC(=O)NC7=O)cn6)C5)CC4)cn3)n2)c1F (racemic) | < 10 nM
CCCS(=O)(=O)Nc1cccc(-c2cn(-c3ccc(C4CCN(CC5CCN(c6ccc(C7CCC(=O)NC7=O)cc6)CC5)CC4)cc3)nc2-c2ccncc2)c1F (racemic) | 10 to 50 nM
CCCS(=O)(=O)Nc1cccc(-c2nc(C3(C)CCN(C(=O)CN4CCC5(CC4)CN(c4ccc6c(c4)C(=O)N(C4CCC(=O)NC4=O)C6=O)C5)CC3)sc2-c2ccnc(N)n2)c1F (racemic) | < 10 nM
CCN(C)S(=O)(=O)Nc1cccc(-c2nc(C(C)(C)C)sc2-c2ccnc(Nc3ccc(N4CCN(CC5CCN(c6ccc(C7CCC(=O)NC7=O)cn6)CC5)CC4)cn3)n2)c1F (racemic) | 10 to 50 nM
CCCS(=O)(=O)Nc1cccc(-c2nc(C(C)(C)C)sc2-c2ccnc(Nc3ccc(C4CCN(C(=O)CN5CCC6(CC5)CN(c5ccc7c(c5)C(=O)N(C5CCC(=O)NC5=O)C7=O)C6)CC4)cc3)n2)c1F (racemic) | 50 to 500 nM
CCCS(=O)(=O)Nc1cccc(-c2nc(C3CCC4(CC3)CCN(C(=O)CN3CCN(CCCc5cccc6c5C(=O)N(C5CCC(=O)NC5=O)C6=O)CC3)CC4)sc2-c2ccnc(N)n2)c1F (racemic) | > 500 nM
CCCS(=O)(=O)Nc1cccc(-c2nc(C(C)(C)C)sc2-c2ccnc(Nc3cccc(OC4CCN(C(=O)[C@@H]5CCN(c6ccc(C7CCC(=O)NC7=O)cn6)C5)CC4)c3)n2)c1F (mixture of isomers) | < 10 nM
CCCS(=O)(=O)Nc1cccc(-c2nc(C(C)(C)C)sc2-c2ccnc(Nc3ccc(N4CCN(C(=O)CN5CCc6cc(C7CCC(=O)NC7=O)ccc6C5)CC4)c(F)c3)n2)c1F (racemic) | < 10 nM

Query string: Given `CCCS(=O)(=O)Nc1cccc(-c2nc(-c3ccc(C4CCN(CC5CCN(c6ccc([C@@H]7CCC(=O)NC7=O)cc6)CC5)CC4)cc3)sc2-c2ccnc(N)n2)c1F` , state its recorded DC50.
Result string: 10 to 50 nM

Query string: Same for CCCS(=O)(=O)Nc1cccc(-c2nc(C(C)(C)C)sc2-c2ccnc(Nc3ccc(C4CCN(CC5CCN(c6ccc(C(=O)NC7CCC(=O)NC7=O)nc6)CC5)CC4)cc3)n2)c1F (racemic)
Result string: 50 to 500 nM

====

- Target Or Test System: BRAF G469A (Homo sapiens, UniProt P15056, G469A)
- Construct: Horizon Discovery (HCT-116 BRAF−/− cells); host or cells: HCT-116 BRAF−/− cells, clone 34, lentiviral transduction
- Sequence (P15056 whole entry G469A): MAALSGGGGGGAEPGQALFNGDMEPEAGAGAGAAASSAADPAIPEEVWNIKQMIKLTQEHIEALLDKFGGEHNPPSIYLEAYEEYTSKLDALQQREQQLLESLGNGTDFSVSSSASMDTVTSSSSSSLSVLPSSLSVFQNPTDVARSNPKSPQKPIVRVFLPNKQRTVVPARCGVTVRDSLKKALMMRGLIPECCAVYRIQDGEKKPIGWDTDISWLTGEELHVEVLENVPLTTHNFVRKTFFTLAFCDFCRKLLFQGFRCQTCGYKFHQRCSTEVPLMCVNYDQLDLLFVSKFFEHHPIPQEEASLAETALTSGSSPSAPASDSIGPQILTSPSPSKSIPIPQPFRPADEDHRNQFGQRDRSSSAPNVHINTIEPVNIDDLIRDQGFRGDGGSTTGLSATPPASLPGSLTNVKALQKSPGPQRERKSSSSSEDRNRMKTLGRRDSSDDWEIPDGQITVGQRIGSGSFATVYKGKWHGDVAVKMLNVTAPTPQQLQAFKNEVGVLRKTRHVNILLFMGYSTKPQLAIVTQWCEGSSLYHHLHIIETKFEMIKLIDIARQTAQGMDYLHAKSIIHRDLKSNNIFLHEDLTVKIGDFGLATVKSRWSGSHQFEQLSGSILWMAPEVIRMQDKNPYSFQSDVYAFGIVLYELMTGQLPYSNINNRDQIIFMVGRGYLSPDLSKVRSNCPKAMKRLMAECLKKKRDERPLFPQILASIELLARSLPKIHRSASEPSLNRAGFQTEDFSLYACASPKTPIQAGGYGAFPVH
- Assay Notes: BRAF HiBiT degradation assay, C-terminal HiBiT-tagged BRAF G469A overexpressed in HCT-116 BRAF−/− cells (clone 34), Nano-Glo HiBiT Lytic assay
- Format: cell-based
- Protocol Conditions: HCT-116; Class 2; BRAF G469A; percentage protein degraded at maximal compound effect relative to DMSO
- Procedure: An A375 cell line expressing a homozygous V600E mutation was purchased from ATCC (Manassas, VA, USA). […] HiBiT signal was measured by a Nano-Glo HiBiT Lytic assay (Promega cat. no. N3050). […] Luminesce units (LU) were read on an EnVision plate reader 2105 (Perkin Elmer). Percent protein remaining and viability remaining per sample were calculated as follows: […]
Measured Attribute: Dmax

The cases that follow already have their Dmax on record.
Compound | Dmax
CCCS(=O)(=O)Nc1cccc(-c2nc(C(C)(C)C)sc2-c2ccnc(Nc3ccc(N4CCN(CC5CCN(c6ccc([C@@H]7CCC(=O)NC7=O)cc6)CC5)CC4)cc3)n2)c1F [Compound 58] | 30 to 70%
CCCS(=O)(=O)Nc1cccc(-c2nc(C3CCN(C(=O)CN4CCC5(CC4)CN(c4ccc6c(c4)C(=O)N(C4CCC(=O)NC4=O)C6=O)C5)CC3)sc2-c2ccnc(NC)n2)c1F (racemic) [Compound 219] | 30 to 70%
CCCS(=O)(=O)Nc1cccc(-c2nc(C3CCN(C(=O)C4CCN(C(=O)C5CCN(c6ccc(C7CCC(=O)NC7=O)cn6)CC5)CC4)CC3)sc2-c2ccnc(NC3CC3)n2)c1F (racemic) [Compound 198] | 30 to 70%
CCCS(=O)(=O)Nc1cccc(-c2nc(C3CCN(C(=O)C4CCN(C(=O)CC5CCN(c6ccc(C7CCC(=O)NC7=O)cn6)CC5)CC4)CC3)sc2-c2ccnc(N)n2)c1F (racemic) [Compound 203] | 30 to 70%
CCCS(=O)(=O)Nc1cccc(-c2cn(-c3ccc(C4CCN(CC5CCN(c6ccc(C7CCC(=O)NC7=O)c(F)c6)CC5)CC4)cc3)nc2-c2ccncc2)c1F (racemic) [Compound 23] | < 30%
CCCS(=O)(=O)Nc1cccc(-c2nc(C(C)(C)C)sc2-c2ccnc(Nc3cnn(CC4CCN(C(=O)CN5CCC(c6ccc(NC7CCC(=O)NC7=O)cc6)CC5)CC4)c3)n2)c1F (racemic) [Compound 116] | < 30%
CCCS(=O)(=O)Nc1cccc(-c2nc(C(C)(C)C)sc2-c2ccnc(NCC(C)(C)C3CCN(CC4CCN(c5ccc(C(=O)N[C@H]6CCC(=O)NC6=O)nc5)CC4)CC3)n2)c1F [Compound 146] | 30 to 70%
CCCS(=O)(=O)Nc1cccc(-c2nc(-c3ccc(N4CCN(CC5CCN(c6ccc(C7CCC(=O)NC7=O)cn6)CC5)CC4)cc3)sc2-c2ccnc(N)n2)c1F (racemic) [Compound 187] | 30 to 70%

Query string: Given CCCS(=O)(=O)Nc1cccc(-c2nc(C(C)(C)C)sc2-c2ccnc(NC3CC4(CCN(C(=O)CN5CCC(c6ccc(NC7CCC(=O)NC7=O)cc6)CC5)CC4)C3)n2)c1F (racemic) [Compound 131] , state its recorded Dmax.
Result string: < 30%

Query string: Same for CCCS(=O)(=O)Nc1cccc(-c2nc(C(C)(C)C)sc2-c2ccnc(Nc3cnn(C4CCN(CC5CCN(c6ccc(C(=O)N[C@@H]7CCC(=O)NC7=O)nc6)CC5)CC4)c3)n2)c1F [Compound 67]
Result string: < 30%

Query string: Same for CCCS(=O)(=O)Nc1cccc(-c2nc(C(C)(C)C)sc2-c2ccnc(Nc3ccc(N4CCN(C(=O)CC5(O)CCN(c6ccc(NC7CCC(=O)NC7=O)cc6F)CC5)CC4)c(F)c3)n2)c1F (racemic) [Compound 52]
Result string: < 30%

Query string: Same for CCN(C)S(=O)(=O)Nc1cccc(-c2nc(C)sc2-c2ccnc(Nc3ccc(N4CCN(CC5CCN(c6ccc([C@H]7CCC(=O)NC7=O)cc6)CC5)CC4)cn3)n2)c1F [Compound 41]
Result string: 30 to 70%

Query string: Same for CCN(C)S(=O)(=O)Nc1cccc(-c2nc(C3CCN(C(=O)C4CCN(C(=O)C5CCN(c6ccc(C7CCC(=O)NC7=O)cn6)CC5)CC4)CC3)sc2-c2ccnc(NC(C)C)n2)c1F (racemic) [Compound 183]
Result string: 30 to 70%

Query string: Same for CCCS(=O)(=O)Nc1cccc(-c2nc(C3CCN(CC4CCN(C(=O)[C@H]5CC[C@H](Oc6ccc(C7CCC(=O)NC7=O)cc6)CC5)CC4)CC3)sc2-c2ccnc(N)n2)c1F (mixture of isomers) [Compound 224]
Result string: < 30%

Query string: Same for CCCS(=O)(=O)Nc1cccc(-c2nc(C(C)(C)C)sc2-c2ccnc(Nc3cccc(OC4CCN(CC5(C)CCN(c6ccc(C7CCC(=O)NC7=O)cn6)CC5)CC4)c3)n2)c1F (racemic) [Compound 68]
Result string: 30 to 70%

Query string: Same for CCCS(=O)(=O)Nc1cccc(-c2nc(C(C)(C)C)sc2-c2ccnc(Nc3ccc(N4CCN(CC5CCN(c6ccc([C@H]7CCC(=O)NC7=O)cc6)CC5)CC4)c(F)c3)n2)c1F [Compound 87]
Result string: 30 to 70%

Query string: Same for CCCS(=O)(=O)Nc1cccc(-c2nc(C3CCN(C(=O)C4(C)CCN(C(=O)CC5CCN(c6ccc(C7CCC(=O)NC7=O)cn6)CC5)CC4)CC3)sc2-c2ccnc(N)n2)c1F (racemic) [Compound 194]
Result string: < 30%

Query string: Same for CCCS(=O)(=O)Nc1cccc(-c2nc(C(C)(C)C)sc2-c2ccnc(NC3CC4(CCN(CC5CCN(c6ccc7c(=O)n(C8CCC(=O)NC8=O)ccc7c6)CC5)CC4)C3)n2)c1F (racemic) [Compound 129]
Result string: < 30%

Query string: Same for CCCS(=O)(=O)Nc1cccc(-c2cn(-c3ccc(N4CCN(CC5CCN(c6ccc(C7CCC(=O)NC7=O)c(F)c6)CC5)CC4)cc3)nc2-c2ccncc2)c1F (racemic) [Compound 19]
Result string: 30 to 70%
